target: LXRβ (Homo sapiens, UniProt P55055)
Construct: Co-transfection expression plasmids, comprising full-length LXRα (pCMX-h LXRα or LXRβ (pCMX-hLXRβ))
Sequence (P55055 1-460): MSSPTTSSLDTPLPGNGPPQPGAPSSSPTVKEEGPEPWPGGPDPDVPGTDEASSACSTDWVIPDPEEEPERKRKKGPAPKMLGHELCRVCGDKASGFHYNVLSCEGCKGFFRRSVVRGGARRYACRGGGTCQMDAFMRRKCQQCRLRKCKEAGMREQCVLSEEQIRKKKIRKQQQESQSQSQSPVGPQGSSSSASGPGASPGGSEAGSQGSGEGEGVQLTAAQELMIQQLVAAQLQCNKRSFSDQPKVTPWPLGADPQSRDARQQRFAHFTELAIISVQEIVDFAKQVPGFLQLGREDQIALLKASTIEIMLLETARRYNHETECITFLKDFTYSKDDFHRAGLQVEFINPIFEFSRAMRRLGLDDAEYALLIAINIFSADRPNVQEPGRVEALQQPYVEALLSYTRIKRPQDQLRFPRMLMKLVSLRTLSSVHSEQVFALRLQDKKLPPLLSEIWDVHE
Sequence (P19793 1-462 partner): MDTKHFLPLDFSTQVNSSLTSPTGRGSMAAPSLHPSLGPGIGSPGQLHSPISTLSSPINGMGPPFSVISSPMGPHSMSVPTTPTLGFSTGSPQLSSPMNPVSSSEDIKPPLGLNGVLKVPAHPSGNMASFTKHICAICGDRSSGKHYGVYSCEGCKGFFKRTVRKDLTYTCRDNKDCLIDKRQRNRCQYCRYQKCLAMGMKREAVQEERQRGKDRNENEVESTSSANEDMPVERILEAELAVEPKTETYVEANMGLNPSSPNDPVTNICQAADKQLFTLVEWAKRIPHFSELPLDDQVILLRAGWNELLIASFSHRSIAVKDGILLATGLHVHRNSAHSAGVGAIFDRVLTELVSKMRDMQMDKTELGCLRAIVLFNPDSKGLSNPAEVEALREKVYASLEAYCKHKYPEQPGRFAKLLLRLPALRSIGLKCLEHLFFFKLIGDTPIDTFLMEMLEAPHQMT
protocol.description: LXR/LXRE co-transfection assay (luciferase reporter) in CV-1 cells, LXRβ
conditions: CV-1 cells transfected with pCMX-hLXRβ and LXREx1-Tk-Luciferase, 20 hours incubation, read-out: LXRbeta agonism EC50
Method: To measure the ability of compounds to activate or inhibit the transcriptional activity of LXR in a cell based assay, the co-transfection assay was used. It has been shown that LXR functions as a heterodimer with RXR. […] Treatment of transfected cells with an LXR agonist increases the transcriptional activity of LXR, which is measured by an increase in luciferase activity. […]
What EC50 was measured for each of the following?
Field format: number, assumed nM, no unit text.

LXRβ (Homo sapiens, UniProt P55055) / EC50 / Cc1nc(-c2cc(-c3cc(F)c(CO)c(S(C)(=O)=O)c3)ccc2-c2cc(C(C)(C)C(C)(C)O)nn2C)c(-c2ccc3c(c2)OC(F)(F)O3)o1 : value?
24

Same for COc1ncc(-c2oc(C)nc2-c2cc(-c3cc(F)c(CO)c(S(C)(=O)=O)c3)ccc2-n2ccc(C(F)(F)F)n2)cc1F
18

Same for Cc1nc(-c2ccc3c(c2)OC(F)(F)O3)c(-c2cc(-c3cc(F)c(CO)c(S(C)(=O)=O)c3)ccc2-c2cc(-c3cnco3)nn2C)o1
158

Same for Cc1nc(-c2ccc(OC(F)F)cc2Cl)c(-c2cc(-c3cccc(S(C)(=O)=O)c3)ccc2-n2cc(Cl)c(C(F)(F)F)n2)o1
37

Same for Cc1nc(-c2ccc3c(c2)OC(F)(F)O3)c(-c2cc(-c3cc(F)c(CO)c(S(C)(=O)=O)c3)ccc2-c2cc(C(=O)NC3CC3)nn2C)o1
529

Same for Cc1nc(-c2ccc(OC(F)(F)F)cc2)c(-c2cc(-c3cc(F)c(CO)c(S(C)(=O)=O)c3)ccc2-n2ccc(C(C)(F)F)n2)o1
20

Data credit: patent US9751869B2
